- System: T-47D breast
- protocol_text: NCI tumour cell line growth inhibition, 48 h
readout: GI50

// returns GI50 for "COc1ccc(-c2cc(=O)[nH]c3c(OC)c4ccccc4c(OC)c23)cc1" with T-47D breast; value = 0.356 µM

// returns GI50 for "COc1c(C)c2c(c(O)c1C/C=C(\C)CCC(=O)O)C(=O)OC2" with T-47D breast; value = 0.663 µM

// returns GI50 for "O=C1Nc2ccccc2/C1=C/C(=O)c1coc2c1C(=O)c1ccccc1C2=O" with T-47D breast; value = 56.9 µM

// returns GI50 for "C(#Cc1ccccc1C#Cc1cccs1)c1cccs1" with T-47D breast; value = 30.2 µM

// returns GI50 for "CC(C)(C)OC(=O)N1CCN(CCn2cc(C(F)(F)F)c3c(Cl)ncnc32)CC1" with T-47D breast; value = 11.5 µM

// returns GI50 for "COc1ccc2nc3cccc([N+](=O)[O-])c3c(NCCCCCC(=O)O)c2c1" with T-47D breast; value = 0.856 µM

// returns GI50 for "CN(CCCn1c2c(c3ccccc3c1=O)C(=O)c1ccccc1-2)CCCn1c2c(c3ccccc3c1=O)C(=O)c1ccccc1-2" with T-47D breast; value = 0.259 µM

// returns GI50 for "CN(O)c1nc(N(C)O)nc(N2CCOCC2)n1" with T-47D breast; value = 8.07 µM

// returns GI50 for "COc1ccc(C(=O)c2cc(OC)c(OC)c(OC)c2)cc1OC(=O)CCl" with T-47D breast; value = 3.03 µM

// returns GI50 for "O=C(CCCCCCCCC(=O)N/N=C\c1ccccc1O)N/N=C\c1ccccc1O" with T-47D breast; value = 2.89 µM

// returns GI50 for COc1ccc(C(=O)OC2C(OC3C(O)COC(O[C@H]4C[C@H]5[C@@H]6CC=C7C[C@@H](O)CC[C@]7(C)[C@H]6CC[C@]5(C)[C@H]4[C@H](C)C(=O)CCC(C)C)C3OC(N)=O)OCC(O)C2O)cc1 (stereo partly specified) with T-47D breast; value = 0.0501 µM

// returns GI50 for "FC(F)(F)c1ccc(Nc2nc(-c3c(C(F)(F)F)nc4ccccn34)cs2)cc1" with T-47D breast; value = 0.0453 µM

// returns GI50 for "c1ccc2[nH]c(-c3ccc(-c4nccc5c4[nH]c4ccccc45)cc3)nc2c1" with T-47D breast; value = 2.02 µM

// returns GI50 for C=C1CCC2C3(C)COC(c4ccc(N(C)C)cc4)OC3CCC2(C)C1C/C=C1/C(=O)OCC1O (stereo unspecified) with T-47D breast; value = 6.91 µM

// returns GI50 for "C[C@H]1[C@H](C)CC[C@]2(CO)CC[C@]3(C)C(=CC[C@@H]4[C@@]5(C)CCCNC(C)(C)[C@@H]5CC[C@]43C)[C@H]12" with T-47D breast; value = 1.68 µM

// returns GI50 for "COc1ccc(/C(COc2ccc3c(=O)cc(-c4ccccc4)oc3c2)=N\O)cc1" with T-47D breast; value = 21.7 µM

###

Answer each item with its documented TGI.
- System: MDA-MB-435
- protocol_text: NCI tumour cell line growth inhibition, 48 h
Field format: number, assumed µM, no unit text.

Just so you know, measured TGI for "CC(C)(C)c1ccc(Oc2nccc(-c3c(-c4ccc(F)cc4)ncn3C3CCNCC3)n2)cc1" came out at 7.04

Just so you know, measured TGI for "Cc1c(C(N)=O)sc2c1C(=O)N(Cc1ccccc1)C1=NN=C(c3ccc(Cl)cc3)CN12" came out at 26.1

Just so you know, measured TGI for Fc1ccc2c(c1)C1=NN(c3ccccc3)C(F)C1CO2 (stereo not given) came out at 15.9

Just so you know, measured TGI for "Cn1c2ccccc2c2c(-c3ccccc3)cc3c(c21)C(=O)C=CC3=O" came out at 4.32

Just so you know, measured TGI for "O=C1/C(=C/c2cccc(F)c2)CCCc2ccccc21" came out at 29.7

Just so you know, measured TGI for "COc1cc(CSc2nc3ccc(C)cc3c(=O)n2-c2ccccc2)cc(OC)c1OC" came out at 0.896

Just so you know, measured TGI for "CC(C)(C)n1cc(-c2ccnc(NCCCNS(=O)(=O)c3ccc(C(F)(F)F)cc3)c2)c(-c2cccc(O)c2)n1" came out at 3.35

###

Answer each item with its documented TGI.
- Test system: HOP-92 NSCLC
- protocol_text: NCI tumour cell line growth inhibition, 48 h
Field format: number, assumed µM, no unit text.

// returns TGI for "Cc1ccc(S(=O)(=O)n2cc(-c3cc(C(F)(F)F)ccn3)c3cc(Br)ccc32)cc1" with HOP-92 NSCLC; value = 35.3

// returns TGI for "O=C(O)c1nc2cc(C(F)(F)F)ccc2nc1Nc1ccc(F)cc1" with HOP-92 NSCLC; value = 39.3

// returns TGI for "NC(N)=N/N=C/c1c(-c2ccc(Cl)cc2)nc2sccn12" with HOP-92 NSCLC; value = 5.67

// returns TGI for "C=CCN1C(=O)/C(=C/c2ccc(OC)cc2)N=C1SC/C=C/C" with HOP-92 NSCLC; value = 93.8

// returns TGI for "Cc1csc2[n+]1C(=O)/C(=C\c1ccc([N+](=O)[O-])cc1)S2" with HOP-92 NSCLC; value = 47.7

// returns TGI for "O=C1/C(=C/c2cccc(F)c2)CCCc2ccccc21" with HOP-92 NSCLC; value = 29.2

// returns TGI for CC(=O)NC1C(OCc2ccccc2)OC(CO)C(O)C1OC(C)C(=O)NC(C(=O)N[C@@H](CCC(=O)NCCNCCNc1c2ccccc2nc2cccc([N+](=O)[O-])c12)C(N)=O)C(C)C (stereo not given in full) with HOP-92 NSCLC; value = 69.9

// returns TGI for "COc1cc(C(=O)O[C@H](C(=O)NCCCCCNC(=O)[C@@H](OC(=O)c2cc(OC)cc3c(C)cccc23)[C@]2(C)CO2)[C@]2(C)CO2)c2cccc(C)c2c1" with HOP-92 NSCLC; value = 0.867

// returns TGI for "COc1ccc(Nc2nnc(-c3nsc4ccccc34)s2)cc1" with HOP-92 NSCLC; value = 41.8

// returns TGI for "CN1C(=Nc2ccccc2)SC1=Nc1ccccc1" with HOP-92 NSCLC; value = 58.5

// returns TGI for "O=C1/C(=C\c2ccc(O)cc2)CCC/C1=C/c1ccc(Cl)c(Cl)c1" with HOP-92 NSCLC; value = 28.9

// returns TGI for "Cc1c(C(N)=O)sc2c1C(=O)N(Cc1ccccc1)C1=NN=C(c3ccc(Cl)cc3)CN12" with HOP-92 NSCLC; value = 14.7

###

- Test system: RXF 393 renal
- protocol_text: NCI tumour cell line growth inhibition, 48 h; in the data active means GI50 below about 0.43 µM; inactive means the rest
// classify into active, inactive

Q) So what was the verdict on "CN(C)CCN1C(=O)c2ccccc2N(C)c2ccccc21" in this test?
A) inactive

Q) So what was the verdict on "O=[N+]([O-])O.[Cu+2].[NH-]CC[NH-].[NH-]CC[NH-]" in this test?
A) inactive

Q) So what was the verdict on CC1CCC(NC(=O)N(CCCl)N=O)CC1 (centres undefined) in this test?
A) inactive

Q) So what was the verdict on "COc1cc(C(=O)O[C@H](C(=O)NCCCCCNC(=O)[C@@H](OC(=O)c2cc(OC)cc3c(C)cccc23)[C@]2(C)CO2)[C@]2(C)CO2)c2cccc(C)c2c1" in this test?
A) active

Q) So what was the verdict on "O=C([CH-]C(=O)c1ccccc1)c1ccccc1.O=C([CH-]C(=O)c1ccccc1)c1ccccc1.[La+3].[OH-].[OH3+]" in this test?
A) inactive

Q) So what was the verdict on "CCC[CH2][Sn]1([CH2]CCC)[O]C(=O)c2cccnc2[O]1" in this test?
A) inactive

Q) So what was the verdict on Fc1ccc2c(c1)C1=NN(c3ccccc3)C(F)C1CO2 (centres undefined) in this test?
A) inactive

Q) So what was the verdict on "CC(C)(C)c1ccc(Oc2nccc(-c3c(-c4ccc(F)cc4)ncn3C3CCNCC3)n2)cc1" in this test?
A) inactive

Q) So what was the verdict on "COc1ccc2c(c1)c(=O)oc1cc(OC/C(C)=N\O)ccc12" in this test?
A) inactive

Q) So what was the verdict on "Cc1cc2c(cc1C)N(C(=O)CCl)CC(=O)N2" in this test?
A) inactive

Q) So what was the verdict on "Cc1nn2c(/C=C3\C(=O)Nc4ccc(Cl)cc43)c(C)nc2s1" in this test?
A) inactive

Q) So what was the verdict on COc1cc2c(c(OC)c1OC)-c1ccc(SC)c(=O)cc1C(CO)C2 (centres undefined) in this test?
A) active

Q) So what was the verdict on "CC/C=C1/C(=O)C=C[C@@H]1C/C=C\CCCC(=O)OC" in this test?
A) inactive

Q) So what was the verdict on "COc1ccc(-c2cc(=O)[nH]c3c(OC)c4ccccc4c(OC)c23)cc1" in this test?
A) active

Q) So what was the verdict on "C(#Cc1ccccc1C#Cc1cccs1)c1cccs1" in this test?
A) inactive

Q) So what was the verdict on CCC(C)(CC(C)(C)C(=O)NCC(=O)NC(Cc1ccccc1)C(=O)NC(Cc1ccccc1)C(=O)NCC(=O)NC1CC(OC2CC(O)(C(=O)CO)Cc3c(O)c4c(c(O)c32)C(=O)c2c(OC)cccc2C4=O)OC(C)C1O)C(=O)NCC(C)O (centres undefined) in this test?
A) inactive

Q) So what was the verdict on C=C1CCC2C3(C)COC(c4ccc(N(C)C)cc4)OC3CCC2(C)C1C/C=C1/C(=O)OCC1O (centres undefined) in this test?
A) inactive

Q) So what was the verdict on "CC(C)(C)OC(=O)N1CCN(CCn2cc(C(F)(F)F)c3c(Cl)ncnc32)CC1" in this test?
A) inactive

Q) So what was the verdict on "COc1cc([N+](=O)[O-])c(OC)cc1-c1nc2sc(Cl)cn2c1/C(N)=N/C(=N)N" in this test?
A) inactive
